# condition.label: in DMF, 343.2 K
quantity.measured: solubility (mole fraction)

[P] Clc1ccc(-c2c3nc(c(-c4ccc(Cl)cc4)c4ccc([nH]4)c(-c4ccc(Cl)cc4)c4nc(c(-c5ccc(Cl)cc5)c5ccc2[nH]5)C=C4)C=C3)cc1
[Q] C1=Cc2nc1c(-c1ccccc1)c1ccc([nH]1)c(-c1ccccc1)c1nc(c(-c3ccccc3)c3ccc([nH]3)c2-c2ccccc2)C=C1
Input line: Hi there! Just curious which has the higher solubility (mole fraction) between P and Q . Write down the label of the entry you select.
Output line: Q

* * *

# condition.label: in DMF, 333.2 K
quantity.measured: solubility (mole fraction)

[P] Clc1ccc(-c2c3nc(c(-c4ccc(Cl)cc4)c4ccc([nH]4)c(-c4ccc(Cl)cc4)c4nc(c(-c5ccc(Cl)cc5)c5ccc2[nH]5)C=C4)C=C3)cc1
[Q] C1=Cc2nc1c(-c1ccccc1)c1ccc([nH]1)c(-c1ccccc1)c1nc(c(-c3ccccc3)c3ccc([nH]3)c2-c2ccccc2)C=C1
Input line: Between P and Q , which one has the lower reported solubility (mole fraction) value? Return value: the label identifying the chosen record.
Output line: P

* * *

# condition.label: in DMF, 353.2 K
quantity.measured: solubility (mole fraction)
Just the number, please, no unit after it.

Input line: What does the data say about its solubility (mole fraction)? Entry: Clc1ccc(-c2c3nc(c(-c4ccc(Cl)cc4)c4ccc([nH]4)c(-c4ccc(Cl)cc4)c4nc(c(-c5ccc(Cl)cc5)c5ccc2[nH]5)C=C4)C=C3)cc1
Output line: 0.000122

* * *

# condition.label: in DMF, 303.2 K
quantity.measured: solubility (mole fraction)

[A] C1=Cc2nc1c(-c1ccccc1)c1ccc([nH]1)c(-c1ccccc1)c1nc(c(-c3ccccc3)c3ccc([nH]3)c2-c2ccccc2)C=C1
[B] Clc1ccc(-c2c3nc(c(-c4ccc(Cl)cc4)c4ccc([nH]4)c(-c4ccc(Cl)cc4)c4nc(c(-c5ccc(Cl)cc5)c5ccc2[nH]5)C=C4)C=C3)cc1
Input line: Kindly identify which of A and B has the larger recorded solubility (mole fraction) value. Give the label of your selection.
Output line: A
(A: 9.76e-05, B: 2.64e-05)

* * *

# condition.label: in DMF, 313.2 K
quantity.measured: solubility (mole fraction)

[A] C1=Cc2nc1c(-c1ccccc1)c1ccc([nH]1)c(-c1ccccc1)c1nc(c(-c3ccccc3)c3ccc([nH]3)c2-c2ccccc2)C=C1
[B] Clc1ccc(-c2c3nc(c(-c4ccc(Cl)cc4)c4ccc([nH]4)c(-c4ccc(Cl)cc4)c4nc(c(-c5ccc(Cl)cc5)c5ccc2[nH]5)C=C4)C=C3)cc1
Input line: Param pair: A , B . Output: the one whose solubility (mole fraction) is numerically greater. Provide the label of your selected option as the answer.
Output line: A
